# SYSTEM_TESTED: BTK (Homo sapiens)
# Sequence (Q06187 whole entry): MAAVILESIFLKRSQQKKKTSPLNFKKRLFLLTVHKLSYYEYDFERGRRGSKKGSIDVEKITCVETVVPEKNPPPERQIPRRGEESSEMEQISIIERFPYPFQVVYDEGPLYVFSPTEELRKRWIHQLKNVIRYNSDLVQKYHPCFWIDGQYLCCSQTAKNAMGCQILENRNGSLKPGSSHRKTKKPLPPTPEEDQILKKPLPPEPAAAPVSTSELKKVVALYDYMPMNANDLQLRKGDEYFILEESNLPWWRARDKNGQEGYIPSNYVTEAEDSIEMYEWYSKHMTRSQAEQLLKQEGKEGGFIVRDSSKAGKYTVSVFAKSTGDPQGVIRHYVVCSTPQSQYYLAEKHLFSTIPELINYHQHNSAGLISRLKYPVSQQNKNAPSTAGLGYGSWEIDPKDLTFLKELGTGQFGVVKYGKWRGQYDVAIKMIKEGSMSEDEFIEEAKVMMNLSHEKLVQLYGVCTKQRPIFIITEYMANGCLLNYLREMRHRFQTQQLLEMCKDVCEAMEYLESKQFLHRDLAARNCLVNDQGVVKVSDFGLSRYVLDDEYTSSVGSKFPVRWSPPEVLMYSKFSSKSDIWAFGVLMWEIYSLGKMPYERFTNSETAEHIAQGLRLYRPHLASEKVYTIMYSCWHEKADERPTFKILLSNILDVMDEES
# PROTOCOL: Degradation of BTK protein in Namalwa cells (Western blot; DC50, Dmax)
# CONDITION_CONTEXT: read-out: DC50 (BTK degradation); concentration giving 50% reduction of BTK expression level; cell line not given
compounds and their reported DC50

Nc1ncnc2c1c(-c1ccc(Oc3ccccc3)cc1)nn2C1CCN(C[C@@H]2CCN(C[C@H]3CCN(c4ccc5c(c4)C(=O)N(C4CCC(=O)NC4=O)C5=O)C3)C2)CC1 (stereo partly drawn) [Compound 447d]; 10 to 50 nM
NC1=NC=NC2C1C(c1ccc(Oc3ccccc3)cc1)=NN2C1CCN(C2CN(C(=O)N3CC(C4CN(c5ccc6c(c5)CN(C5CCC(=O)NC5=O)C6=O)C4)C3)C2)CC1 (stereo not drawn) [Compound 500]; 10 to 50 nM

For the next question, use this compound.
The recorded DC50 for Nc1ncnc2c1c(-c1ccc(Oc3ccccc3)cc1)nn2[C@@H]1CCCN(CC2CCN(CC3CCN(c4ccc(C(=O)NC5CCC(=O)NC5=O)cc4)CC3)CC2)C1 (stereo partly drawn) [Compound 515] is < 10 nM
